Quick reference: Percent Control of the listed items.
System: CDK11;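 also: KINOMEscan scanMAX binding as percent activity remaining versus control; lower means stronger binding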
Construct: gene CDK19
Settings: Compound Concentration (nM):1000
Give just the numeric value; % need not be written.

{"columns": ["Compound", "Quantity Kind", "Reported Measurement"],
 "data": [
  ["O=C(Nc1n[nH]c2nc(-c3ccc(O)cc3)c(Br)cc12)C1CC1 [SB-725317]", "Percent Control", 100],
  ["COC(=O)Nc1nc2ccc(Oc3ccc(NC(=O)Nc4cc(C(F)(F)F)ccc4F)cc3)cc2s1.Cl [GW693917A]", "Percent Control", 5.3],
  ["Cl.O=S1CCN(Cc2ccc(-c3ccc4ncnc(Nc5ccc(OCc6ccccc6)c(F)c5)c4c3)o2)CC1 [GW576924A]", "Percent Control", 100]
]}

Turning to the following compound.
Please report Percent Control for the following compound: CC(C)COC(=O)c1ccc2c(c1)/C(=C/Nc1ccc(S(N)(=O)=O)cc1)C(=O)N2 [GW416981X] 100

Each recorded value in this set is attributed to paper PMC7826789.
